# MEASURED ON: T1, Mouse Fc-human GDF15 (Mu IgG1Fc_Fxa_Hu GDF15) (human)
# T1 construct: Whole entry is the fusion: mouse IgG1 Fc, FXa site and linker, mature human GDF15; described as dimeric; also called Murine dimeric IgG1 Fc-human GDF-15 with FXa cleavage site; control human GDF15
# T1 chain: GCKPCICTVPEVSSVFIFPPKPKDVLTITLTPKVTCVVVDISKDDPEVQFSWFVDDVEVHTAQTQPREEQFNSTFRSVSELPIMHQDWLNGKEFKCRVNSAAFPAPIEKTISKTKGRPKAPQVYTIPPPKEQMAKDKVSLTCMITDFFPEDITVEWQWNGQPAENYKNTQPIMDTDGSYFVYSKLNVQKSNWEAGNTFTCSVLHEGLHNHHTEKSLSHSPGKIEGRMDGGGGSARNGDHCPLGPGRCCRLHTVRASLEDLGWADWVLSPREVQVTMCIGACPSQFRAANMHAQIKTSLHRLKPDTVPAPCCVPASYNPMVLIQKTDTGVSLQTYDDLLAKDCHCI
# TEST PROTOCOL: SPR BIAcore T200, 37C; Fc-GDF15 captured, IgG as analyte; average of runs
OBSERVATION TYPE: koff (s⁻¹)
Number in s⁻¹, nothing else.

A selection of reference data follows.
BINDER	MEASUREMENT UNIT	koff
GDF15_0470 (antibody, human IgG1, kappa, V domains shown, Tested in bivalent format; also called GDF15-470) VH: QVQLVQSGAEVKKPGASVKVSCKASGYPFEGWYIHWVRQAPGQGLEWMGWNNPRTGLTNHAQKFQGRVTMTRDTSISTAYMELSRLRSDDTAVYYCARGVGADAAFDIWGQGTMVTVSS VL: EIVLTQSPATLSLSPGERATLSCRSSQSLLWKHGYNYLDWYQQKPGQAPRLLIYLDRNRAHGIPARFSGSGSGTDFTLTISSLEPEDFAVYYCMQSFETPITFGQGTKVEIKR	s⁻¹	4.76e-05
GDF15_0301 (antibody, mouse IgG1, kappa, V domains shown, Tested in bivalent format; also called GDF15_301; mAB2) VH: QVQLQQPGAELVKPGASVKMSCKASGYPFEGWYIHWVKQRPGQGLEWMGWNNPRTGLTNHAQKFQGKATLTVDTSSSTAYMQLSSLTSEDSAVYYCARGVGADAAFDIWGQGTTLTVSS VL: DIVLTQSPSSLSVSAGEKVTMSCRSSQSLLWKHGYNYLDWYQQKPGQPPKLLIYLDRNRAHGVPDRFTGSGSGTDFTLTISSVQAEDLAVYYCMQSFETPITFGGGTKLEIKR	s⁻¹	6.97e-06
GDF15_001 (antibody, human IgG1, kappa, V domains shown, Tested in bivalent format; IgG1 heavy chain, kappa light chain; also called ponsegromab; PF-06946860) VH: QVQLVQSGAEVKKPGSSVKVSCKASGYTFSSYNIDWVRQAPGQGLEWMGGINPIFGTAFYNQKFQGRVTITADESTSTAYMELSSLRSEDTAVYYCAREAITTVGAMDHWGQGTLVTVSS VL: EIVLTQSPATLSLSPGERATLSCRTSQSVHNYLAWYQQKPGQAPRLLIYDASTRADGIPARFSGSGSGTDFTLTISSLEPEDFAVYYCQQFWSWPWTFGQGTKVEIKR	s⁻¹	6.75e-06
GDF15_010 (antibody, human IgG1, kappa, V domains shown, Tested in bivalent format) VH: QVQLVQSGAEVKKPGSSVKVSCKASGYTFSDYNIDWVRQAPGQGLEWMGGINPNNGLAFFNQKFQGRVTITADESTSTAYMELSSLRSEDTAVYYCAREAITTVGAMDYWGQGTLVTVSS VL: EIVLTQSPATLSLSPGERATLSCRTSQSLHSYLAWYQQKPGQAPRLLIYDASNRATGIPARFSGSGSGTDFTLTISSLEPEDFAVYYCQQFWNDPWTFGQGTKVEIKR	s⁻¹	1.63e-05
GDF15_013 (antibody, human IgG1, kappa, V domains shown, Tested in bivalent format) VH: QVQLVQSGAEVKKPGSSVKVSCKASGYTFSDYNMDWVRQAPGQGLEWMGGINPNNGLAFYNQKFQGRVTITADESTSTAYMELSSLRSEDTAVYYCAREAITTVGAMDYWGQGTLVTVSS VL: EIVLTQSPATLSLSPGERATLSCRTSESVHSYLAWYQQKPGQAPRLLIYDASNRATGIPARFSGSGSGTDFTLTISSLEPEDFAVYYCQQFWNWPWTFGQGTKVEIKR	s⁻¹	7.08e-05
GDF15_017 (antibody, human IgG1, kappa, V domains shown, Tested in bivalent format) VH: QVQLVQSGAEVKKPGSSVKVSCKASGYTFTDYNIDWVRQAPGQGLEWMGQINPNNGLAFYNQKFQGRVTITADESTSTAYMELSSLRSEDNAVYYCAREAITTVGAMDYWGQGTLVTVSS VL: EIVLTQSPATLSLSPGERATLSCRTSQSVHSYLAWYQQKPGQAPRLLIYDAKTRATGIPARFSGSGSGTDFTLTISSLEPEDFAVYYCQQFSSDPYTFGQGTKVEIKR	s⁻¹	8.42e-05

Q: Requested read-out: koff. Entry: GDF15_0297 (antibody, mouse IgG1, kappa, V domains shown, Tested in bivalent format; also called GDF15_297) VH: QVQLQQPGAELVKPGASVKMSCKASGYPFEGWYIHWVKQRPGQGLEWMGWNNPRTGLTNHAQKFQGKVTMTRDTSSSTAYMQLSSLTSEDSAVYYCARGVGADAAFDIWGQGTTLTVSS VL: DIVMTQSPSSLSVSAGEKVTMSCRSSQSLLWKHGYNYLDWYQQKPGQPPKLLIYLDRNRAHGVPDRFTGSGSGTDFTLTISSVQAEDLAVYYCMQSFETPITFGGGTKLEIKR
A: 1.19e-05

Q: Form field: reported koff of GDF15_014 (antibody, human IgG1, kappa, V domains shown, Tested in bivalent format) VH: QVQLVQSGAEVKKPGSSVKVSCKASGYTFSSYNIDWVRQAPGQGLEWMGQINPINGLAFYNQKFQGRVTITADESTSTAYMELSSLRSEDTAVYYCAREAITTVGAMDYWGQGTLVTVSS VL: EIVLTQSPATLSLSPGERATLSCRTSQNVHNYLAWYQQKPGQAPRLLIYDASNRATGIPARFSGSGSGTDFTLTISSLEPEDFAVYYCQQFWSDPYTFGQGTKVEIKR
A: 1.64e-05

Q: What does the record list as koff for GDF15_003 (antibody, human IgG1, kappa, V domains shown, Tested in bivalent format) VH: QVQLVQSGAEVKKPGSSVKVSCKASGYTFTSYNIDWVRQAPGQGLEWMGQINPNNGLAFYNQKFQGRVTITADESTSTAYMELSSLRSEDTAVYYCAREQITTVGAMDYWGQGTLVTVSS VL: EIVLTQSPATLSLSPGERATLSCRASQSLSSYLAWYQQKPGQAPRLLIYDAKNRADGIPARFSGSGSGTDFTLTISSLEPEDFAVYYCQQFSSDPYTFGQGTKVEIKR ?
A: 8.2e-05

Q: Quick one: koff of GDF15_004 (antibody, human IgG1, kappa, V domains shown, Tested in bivalent format) VH: QVQLVQSGAEVKKPGSSVKVSCKASGYTFSSYNIDWVRQAPGQGLEWMGQINPNNGLANYAQKFQGRVTITADESTSTAYMELSSLRSEDTAVYYCAREAITTIGAMDYWGQGTLVTVSS VL: EIVLTQSPATLSLSPGERATLSCRTSESVHSYLAWYQQKPGQAPRLLIYDASTRADGIPARFSGSGSGTDFTLTISSLEPEDFAVYYCQQFWSDPYTFGQGTKVEIKR ?
A: 7.67e-05
